Test: Drug recovery in the Sorin ECMO circuit
Settings: 24 h; phosphorylcholine-coated circuit, whole human blood, 37°C; HPLC-MS/MS; % of 2 min concentration; single measurement
Procedure: Four healthy volunteers were recruited. After obtaining informed consent, 402 ml of blood was collected through the cubitus vein using disposable blood bags (Fresenius Kabi), of which 2 ml was used for a routine blood examination. […] Blood samples were collected at different time points, and the drug concentration was measured to observe the recovery rate of different drugs in the ECMO cycle. […] In this study, two experiments were carried out and 26 blood samples were analyzed. […]
propertyLabel: Drug recovery, Sorin circuit, 24 h (%)
Answer in %, number only, no unit symbol.

| structureSmilesString | propertyLabel | unitLabel | dataValue |
| --- | --- | --- | --- |
| C[C@@H](O)[C@H]1C(=O)N2C(C(=O)O)=C(S[C@@H]3CN[C@H](C(=O)N(C)C)C3)[C@H](C)[C@H]12 | Drug recovery, Sorin circuit, 24 h | % | 47 |

Consider the record given below.
Q: Returns the measured Drug recovery, Sorin circuit, 24 h for the input compound. Input: `CCN1CCN(C(=O)N[C@@H](C(=O)N[C@@H]2C(=O)N3C(C(=O)O)=C(CSc4nnnn4C)CS[C@H]23)c2ccc(O)cc2)C(=O)C1=O`
A: 75

###

test: Control group: spontaneous drug degradation in whole blood at 37°C; settings: control of Sorin experiment; whole human blood, water bath 37°C 24 h, no circuit; HPLC-MS/MS; % of 2 min concentration; single measurement
propertyLabel: Drug recovery, Control-24 h (Sorin experiment) (%)
Answer in %, number only, no unit symbol.

| compound | unitLabel | dataValue |
| --- | --- | --- |
| CCN1CCN(C(=O)N[C@@H](C(=O)N[C@@H]2C(=O)N3C(C(=O)O)=C(CSc4nnnn4C)CS[C@H]23)c2ccc(O)cc2)C(=O)C1=O [Cefoperazone, cefoperazone] | % | 98 |

Q: Returns the measured Drug recovery, Control-24 h (Sorin experiment) for the input compound. Input: C[C@@H](O)[C@H]1C(=O)N2C(C(=O)O)=C(S[C@@H]3CN[C@H](C(=O)N(C)C)C3)[C@H](C)[C@H]12 [Meropenem, meropenem]
A: 95

###

test: Control group: spontaneous drug degradation in whole blood at 37°C; conditions: controls of both experiments; whole human blood taken 2 min after injection, not passed through circuit, water bath 37°C 24 h; HPLC-MS/MS; relative to 2 min baseline; mean (SD); SD
Listed here: items and their measured Drug recovery (%) from control group at 24 h.

Worked cases, answers included:
| structureSmilesString | dataValue |
| --- | --- |
| CN(C)c1cc(NC(=O)CNC(C)(C)C)c(O)c2c1C[C@H]1C[C@H]3[C@H](N(C)C)C(O)=C(C(N)=O)C(=O)[C@@]3(O)C(O)=C1C2=O | 144.54 (2.31) % |
| CCN1CCN(C(=O)N[C@@H](C(=O)N[C@@H]2C(=O)N3C(C(=O)O)=C(CSc4nnnn4C)CS[C@H]23)c2ccc(O)cc2)C(=O)C1=O | 98.30 (1.17) % |
| CC[C@H](C)C[C@H](C)CCCCCCCCC(=O)N[C@H]1C[C@@H](O)[C@@H](NCCN)NC(=O)[C@@H]2[C@@H](O)CCN2C(=O)[C@H]([C@H](O)CCN)NC(=O)[C@H]([C@H](O)[C@@H](O)c2ccc(O)cc2)NC(=O)[C@@H]2C[C@@H](O)CN2C(=O)[C@H]([C@@H](C)O)NC1=O | 85.24 (7.93) % |

Consider the record given below.
Q: Returns the measured Drug recovery (%) from control group at 24 h for the input compound. Input: `C[C@@H](O)[C@H]1C(=O)N2C(C(=O)O)=C(S[C@@H]3CN[C@H](C(=O)N(C)C)C3)[C@H](C)[C@H]12`
A: 74.84 (19.10) %
